# growth per record follows
# Tested on: HS 578T breast
# TEST: NCI-60 one-dose screen, 48 h (100 = growth as untreated, 0 = no growth, -100 = all killed)
# CONDITION: 10 µM unless noted
About 83,000 compounds went through this panel and 20% of them were active in at least one assay; those are over-represented in the sample as a whole. The source made the active and inactive calls. Rule for the calls: active = growth percent below 10; inactive = the rest.

Example results:
OCc1c(-c2ccccc2)nc2sccn12 | 77.7% (inactive)
Nc1nc(-c2ccccc2)cs1 | 104% (inactive)
COc1ccc([N+](=O)[O-])c(/C=C/C(=O)c2ccccn2)c1 | 91.4% (inactive)

Could you now look at the following compound, please?
Q: Request body: readout growth, system HS 578T breast, query CC(=O)OC[Si](C)(C)c1ccccc1 . Return the value.
A: 103% (inactive)

====

# growth per record follows
# System: SK-MEL-2 melanoma
# TEST: NCI-60 one-dose screen, 48 h (100 = growth as untreated, 0 = no growth, -100 = all killed)
# CONDITION: 10 µM unless noted
The panel holds about 83,000 compounds, 20% with a hit somewhere; the sample as a whole holds those more often.
Give a bare numeral; the unit % is implied.

Example results:
Cc1cc(NC(=O)COC(=O)c2sc3cc(F)ccc3c2Cl)no1 | 44.8
O=C1Nc2cc(Cl)ccc2/C1=C/c1ccc(N2CCOCC2)s1 | 91.4
C[C@]12CC[C@@H]3c4cc(O)c(O)cc4CC[C@H]3[C@@H]1CC[C@@H]2O | -16.8
COc1cccc(NC(=O)Cn2cc3c(=O)oc4ccccc4c3n2)c1 | 101

Q: Would you kindly share the measured growth for CC1CCc2c(sc(NC(=O)CSc3nnc4ccccn34)c2C(N)=O)C1 (stereo not drawn) ?
A: 48.4

Q: Would you kindly share the measured growth for Cc1ccc(C2=NN(c3ccc(S(N)(=O)=O)cc3)C(c3cn(-c4ccccc4)nc3-c3ccccc3)C2)cc1 (stereo not drawn) ?
A: 90

Q: Would you kindly share the measured growth for Nc1c(C(=O)Nc2ccccc2)sc2nc3c(cc12)CCCCC3 ?
A: 12.6

Q: Would you kindly share the measured growth for COc1cc2c(cc1OC)C1(C)N(CC2)C(=O)OC1(C)C (stereo not drawn) ?
A: 120

Q: Would you kindly share the measured growth for COc1ccc(NC(=O)CSc2nc3ccc(Cl)cc3c(=O)n2-c2ccccc2C(F)(F)F)c(OC)c1OC ?
A: 53.3

====

# growth per record follows
# Tested on: SF-539 CNS
# TEST: NCI-60 one-dose screen, 48 h (100 = growth as untreated, 0 = no growth, -100 = all killed)
# CONDITION: 10 µM unless noted
About 83,000 compounds went through this panel and 20% of them were active in at least one assay; those are over-represented in the sample as a whole.
Give a bare numeral; the unit % is implied.

Nc1c(C(=O)Nc2ccccc2)sc2nc3c(cc12)CCCCC3 | 7.96
O=C1c2ccccc2C(=O)c2c1oc1oc3c(c(=O)c21)c(=O)n(-c1ccccc1)c1ccccc31 | -5.45
COC1=CC(c2ccc[nH]2)=N/C1=C\c1[nH]c(C)c(C(=O)CCCCC(=O)Nc2ccccc2)c1C | 78.6
Nc1cc2c(cc1N)-c1cc(N)c(N)cc1C2 | 103
NC(=O)c1c(NC(=O)c2ccc3c(c2)OCO3)sc2c1CCC(=O)C2 | -55.5

Q: Would you kindly share the measured growth for O=C(NNC(=S)Nc1ccccc1)c1ccccn1 ?
A: 31.5

====

# System: RXF 393 renal
# TEST: NCI-60 one-dose screen, 48 h (100 = growth as untreated, 0 = no growth, -100 = all killed)
# CONDITION: 10 µM unless noted
# Method: Cells are grown in 96 well plates and exposed to the test compound for 48 hours. Compounds are tested at a single concentration, which is 10^-5 M for most compounds. The reported endpoint is percent growth (GI% or GIPRCNT), where numbers from 0 - 100% represent growth inhibition, and numbers from -100% - 0 represent cell death. For example, a value of 40 represents 60% growth inhibition. A value of 0 means no net growth occurred over the course of the experiment. […]
This is part of a sample that, as a whole, favours compounds with a hit. Of some 83,000 tested, about 20% had one in any assay.
PROPERTY NAME: growth (%)
Give a bare numeral; the unit % is implied.

C=C1C(=O)O[C@H]2[C@H]1CC/C(COC(=O)NCc1ccc(OC)cc1)=C\CC[C@@]1(C)O[C@@H]21 | 15
NS(=O)(=O)c1ccc(NCC(=O)Nc2ccc(-c3nc4ccccc4s3)cc2)cc1 | 99.9
O=c1cc(C2NCCc3c2[nH]c2ccccc32)c2c(ccc3ccccc32)o1 (stereo not drawn) | 44.2
C[N+](C)(C)c1ccc(CC2c3ccccc3-c3ccccc32)cc1 | 103
COc1cc(-n2nc(C(=O)Nc3ccc(C(=O)O)cc3)nc2-c2ccccc2)cc(OC)c1OC | 106
CCOC(=O)c1cc(/C(=N\O)c2cc(OC)c(OC)c(OC)c2)n2cc(C)cc(C)c12 | 36.1
CN(C)C1CCC(NC2=CC(=O)C=CC2=O)CC1 (stereo not drawn) | 118

Q: Would you kindly share the measured growth for CCN(CC)CCCC(C)N=c1cc(Nc2cc(=NC(C)CCCN(CC)CC)c3cc(OC)ccc3o2)oc2ccc(OC)cc12 (stereo not drawn) ?
A: -68.4

====

# System: IGROV1 ovarian
# TEST: NCI-60 one-dose screen, 48 h (100 = growth as untreated, 0 = no growth, -100 = all killed)
# CONDITION: 10 µM unless noted
The panel holds about 83,000 compounds, 20% with a hit somewhere; the sample as a whole holds those more often.
PROPERTY NAME: growth (%)
Give a bare numeral; the unit % is implied.

Example results:
O=Nc1c(-c2c(O)[nH]c3ccc([N+](=O)[O-])cc23)[nH]c2ccc(O)cc12 | 6.36
C=C1C(=O)O[C@H]2[C@H]1CC/C(Cn1cc(-c3ccc(N)cc3)nn1)=C\CC[C@@]1(C)O[C@@H]21 | 18.4

Q: Would you kindly share the measured growth for N#Cc1ncc(-c2ccc(F)c(F)c2F)c(NC2CCCCCC2)n1 ?
A: 83.8

====

# growth per record follows
# Tested on: SR leukemia
# TEST: NCI-60 one-dose screen, 48 h (100 = growth as untreated, 0 = no growth, -100 = all killed)
# CONDITION: 10 µM unless noted
Compounds without any hit were thinned out: in the full panel of roughly 83,000, 20% have a hit. Calls of active or inactive are those of the source. Rule for the calls: active = growth percent below 10; inactive = the rest.

CC/C(=C(\c1ccc(O)cc1)c1ccc(OCCN(C)CCN(C)C(=O)CCC(=O)c2c(C)[nH]c(/C=C3\N=C(c4ccc[nH]4)C=C3OC)c2C)cc1)c1ccccc1 | 58.6% (inactive)
COC12CC(=O)C(C(C)=O)=C(O)C1(C)c1c(O)c(C)c(O)c(C(C)=O)c1O2 (stereo not given) | 69.9% (inactive)
C=CC(=O)N[C@H](/C=C/C(=O)OCC)Cc1ccc(-c2cc(Cl)cc(Cl)c2)cc1 | 68.7% (inactive)
CC(C)(C)c1cc(-c2nc3ccc(N4CCN(CCO)CC4)cc3[nH]2)cc(C(C)(C)C)c1O | -16% (active)
C=C1C(=O)O[C@H]2[C@H]1CC/C(COC(=O)NCc1cc(OC)c(OC)c(OC)c1)=C\CC[C@@]1(C)O[C@@H]21 | 4.5% (active)

Q: Request body: readout growth, system SR leukemia, query Cc1cc(Nc2nc(-c3ccc(F)cc3)nc3ccccc23)n[nH]1 . Return the value.
A: 20.4% (inactive)

Q: Request body: readout growth, system SR leukemia, query O=S(=O)(NCCCNc1nccc(-c2c(-c3ccc(F)c(O)c3)nc3sccn23)n1)c1ccc(Cl)cc1 . Return the value.
A: 61.6% (inactive)

====

# Test system: UACC-62 melanoma
# TEST: NCI-60 one-dose screen, 48 h (100 = growth as untreated, 0 = no growth, -100 = all killed)
# CONDITION: 10 µM unless noted
The panel holds about 83,000 compounds, 20% with a hit somewhere; the sample as a whole holds those more often.
PROPERTY NAME: growth (%)
Give a bare numeral; the unit % is implied.

Cc1cc(C(=O)CSc2nc3ccccc3c(=O)[nH]2)c(C)n1C | 90.5
COc1ccc(NC(=O)CSc2nc3ccccc3c(=O)n2Cc2cc(OC)c(OC)c(OC)c2)cc1 | 74.2
Cc1ccc(Nc2ncnc3c2sc2ncccc23)cc1 | 103
Cc1ccc(-c2csc3nc(C)c(CCCl)c(=O)n23)cc1 | 88.2
CCCCCCCCCCCCOB(OCCCCCCCCCCCC)OCCCCCCCCCCCC | 104
CCOc1ccc(/C=C/C=N/NC(N)=S)cc1 | 81.9
Nc1nc(Cl)c2c(ncn2Cc2ccc(CCl)cc2)n1 | 78.4
O=C(COc1ccccc1)N1N=C(c2ccc(Cl)cc2)CC1c1c[nH]c2ccccc12 (centres undefined) | 70.9

Q: Would you kindly share the measured growth for COc1ccc(/C=C/C(=O)c2cc(OC)c(OC)c(OC)c2)cc1OCc1cn(Cc2ccc(F)cc2)nn1 ?
A: 64.4
